Catalogue of pEC50 readings, one per entry.
target: human GPR40 (Homo sapiens, UniProt O14842); construct: expressed in transfected cells; experiment: Determination of EC50 against human GPR40: changes in intracellular calcium concentration by FLIPR in CHO cells stably expressing human GPR40; format: cell-based; conditions: CHO cell line stably expressing human GPR40, Fluo3-AM, read-out: EC50 (Receptor Function Modulating Action On GPR40)
Sequence (O14842 whole entry): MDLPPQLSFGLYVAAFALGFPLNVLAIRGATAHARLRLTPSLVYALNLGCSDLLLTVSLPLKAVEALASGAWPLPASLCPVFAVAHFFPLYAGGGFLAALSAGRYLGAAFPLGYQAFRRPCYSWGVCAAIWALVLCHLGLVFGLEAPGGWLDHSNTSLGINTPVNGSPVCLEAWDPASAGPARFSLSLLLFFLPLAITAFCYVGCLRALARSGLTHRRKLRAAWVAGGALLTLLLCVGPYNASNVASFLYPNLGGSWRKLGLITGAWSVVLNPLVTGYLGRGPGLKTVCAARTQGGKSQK
Entry type: numeric. Quantity: pEC50, the -log10 of concentration in molar units.

Exercise: For the molecule shown here, CCS(=O)(=O)CCOc1cc(C)c(-c2cccc(COc3ccc(CCC(=O)O)c(F)c3)c2)c(C)c1 , give the reported pEC50.
Key: 7.49

Exercise: For the molecule shown here, Cc1cc(OCCCN2CCCC2=O)cc(C)c1-c1cccc(COc2ccc(CCC(=O)O)c(F)c2)c1 , give the reported pEC50.
Key: 7.47

Exercise: For the molecule shown here, Cc1cc(OS(C)(=O)=O)cc(C)c1-c1cccc(COc2ccc(CCC(=O)O)c(F)c2)c1 , give the reported pEC50.
Key: 7.82

Exercise: For the molecule shown here, Cc1cc(OCc2ccccc2)cc(C)c1-c1cccc(COc2ccc(CCC(=O)O)cc2)c1 , give the reported pEC50.
Key: 7.49

Exercise: For the molecule shown here, Cc1cc(Cl)ccc1-c1cccc(COc2ccc(CCC(=O)O)cc2)c1 , give the reported pEC50.
Key: 8.21

Exercise: For the molecule shown here, Cc1cccc(COc2cc(C)c(-c3cccc(COc4ccc(CCC(=O)O)c(F)c4)c3)c(C)c2)n1.Cl [Example 97, hydrochloride] , give the reported pEC50.
Key: 7.64

Exercise: For the molecule shown here, Cc1cc(OCC2(O)CCS(=O)(=O)CC2)cc(C)c1-c1cccc(COc2ccc(CCC(=O)O)c(F)c2)c1 , give the reported pEC50.
Key: 7.77
